Tested on: male rats
Assay: Plasma metabolite profiling (GC-MS, LC-MS, SPE-LC-MS) in male rats dosed once daily over 28 days (OECD 407)
Format: in vivo, rat
Conditions: m14; high dose; Table 10a
Experimental: Each dose group in the studies consisted of five rats per sex. Additional groups of each 5 male and female animals served as controls. […] All animals of the animal population were kept under the same constant temperature (20-24±3° C.) and the same constant humidity (30-70%). The animals of the animal population were fed ad libitum. […] Steroids and their metabolites were measured by online SPE-LC-MS (Solid phase extraction-LC-MS). […]
QUANTITY: Cysteine

{"COMPOUND": "CC(C)C(=O)Nc1ccc([N+](=O)[O-])c(C(F)(F)F)c1 [Flutamide]", "TARGET": "male rats", "QUANTITATIVE READOUT": 0.96}
{"COMPOUND": "Cn1cc[nH]c1=S [Methimazole]", "TARGET": "male rats", "QUANTITATIVE READOUT": 1.25}
{"COMPOUND": "Cc1cccc(C)c1N(Cn1cccn1)C(=O)CCl [Metazachlor]", "TARGET": "male rats", "QUANTITATIVE READOUT": 0.86}

###

Test system: male rats
Experiment: Plasma metabolite profiling (GC-MS, LC-MS, SPE-LC-MS) in male rats dosed once daily over 28 days (OECD 407)
Format: in vivo, rat
Settings: m28; high dose; Table 14b
Method: Each dose group in the studies consisted of five rats per sex. Additional groups of each 5 male and female animals served as controls. […] All animals of the animal population were kept under the same constant temperature (20-24±3° C.) and the same constant humidity (30-70%). The animals of the animal population were fed ad libitum. […] Steroids and their metabolites were measured by online SPE-LC-MS (Solid phase extraction-LC-MS). […]
Counter-ions that a name gives are not always drawn.
Sphingomyelin (d18:1, C16:0) strictly under 0.3 means Y; at 0.3 or over means N.

{"MOLECULE": "CC/C(=C(\\c1ccccc1)c1ccc(OCCN(C)C)cc1)c1ccccc1 [Tamoxifen]", "CLASSIFICATION": "N"}
{"MOLECULE": "C[C@]12CCC(=O)C=C1CC[C@@H]1[C@@H]2CC[C@@]2(C)[C@H]1CC[C@]2(C)O [17-alpha-Methyltestosterone]", "CLASSIFICATION": "Y"}
{"MOLECULE": "C[C@]12C=CC3=C4CCC(=O)C=C4CCC3C1CC[C@@H]2O (stereo partly drawn) [Trenbolone]", "CLASSIFICATION": "N"}
{"MOLECULE": "O=C(c1ccc(OCCN2CCCCC2)cc1)c1c(-c2ccc(O)cc2)sc2cc(O)ccc12 [Raloxifene Hydrochloride]", "CLASSIFICATION": "N"}
{"MOLECULE": "OCCNCCO [Diethanolamine]", "CLASSIFICATION": "N"}
{"MOLECULE": "C#C[C@]1(O)CC[C@H]2[C@@H]3CCc4cc(O)ccc4[C@H]3CC[C@@]21C [17-alpha-Ethynylestradiol]", "CLASSIFICATION": "N"}

###

Tested on: male rats
Assay: Plasma metabolite profiling (GC-MS, LC-MS, SPE-LC-MS) in male rats dosed once daily over 28 days (OECD 407)
Type: in vivo, rat
Details: m7; high dose; Table 10b
Counter-ions that a name gives are not always drawn. Marks after values point to notes of the source that are not given here.
QUANTITY: trans-4-Hydroxyproline

{"MOLECULE": "Cc1cccc(C)c1N(Cn1cccn1)C(=O)CCl [Metazachlor]", "QUANTITY": "trans-4-Hydroxyproline", "RESULT": 0.93}
{"MOLECULE": "CNCCC(Oc1ccc(C(F)(F)F)cc1)c1ccccc1 (stereo not shown) [Fluoxetine hydrochloride]", "QUANTITY": "trans-4-Hydroxyproline", "RESULT": "0.87 *"}
{"MOLECULE": "Cn1cc[nH]c1=S [Methimazole]", "QUANTITY": "trans-4-Hydroxyproline", "RESULT": "0.85 *"}
{"MOLECULE": "CC(C)C(=O)Nc1ccc([N+](=O)[O-])c(C(F)(F)F)c1 [Flutamide]", "QUANTITY": "trans-4-Hydroxyproline", "RESULT": "0.79 *"}
